- PROTOCOL: Example 1: pharmacokinetics after in-clinic subcutaneous dose
- Assay type: in vivo, human
- CONDITION PARAMETERS: human, in vivo, sc, 1.75 mg, 1.75 mg SC, Visit 7; read-out: AUC(0-2h), Mean

COMPOUND | AUC(0-t) (ng·h/mL)
CCCC[C@H](NC(C)=O)C(=O)N[C@H]1CC(=O)NCCCC[C@@H](C(=O)O)NC(=O)[C@H](Cc2c[nH]c3ccccc23)NC(=O)[C@H](CCCNC(=N)N)NC(=O)[C@@H](Cc2ccccc2)NC(=O)[C@H](Cc2c[nH]cn2)NC1=O [bremelanotide] | 112

---

- PROTOCOL: Example 1: pharmacokinetics after in-clinic subcutaneous dose
- Format: in vivo, human
- CONDITION PARAMETERS: human, in vivo, sc, 1.75 mg, 1.75 mg SC, Visit 5; read-out: Cmax, Mean
MEASURED METRIC: Cmax (ng/mL)

MOLECULE | MEASURED METRIC | RECORDED VALUE
CCCC[C@H](NC(C)=O)C(=O)N[C@H]1CC(=O)NCCCC[C@@H](C(=O)O)NC(=O)[C@H](Cc2c[nH]c3ccccc23)NC(=O)[C@H](CCCNC(=N)N)NC(=O)[C@@H](Cc2ccccc2)NC(=O)[C@H](Cc2c[nH]cn2)NC1=O [bremelanotide] | Cmax | 77
